Data origin, for the record: patent US10562935B2

assay: Circular dichroism (CD) spectroscopy of linear and stapled peptides in water or 40% TFE/water (Example 3); type: physicochemical; conditions: in water
Bridges are numbered along the chain shown (N, C = ends).
value.kind: alpha-helical character by CD (in words)

[[record]]
substance = "Ac-(cyclo-7,11)-VSKLRS[ELVKK]KQN-NH2 (Ac-VSKLRSELVKKKQN-NH2; lactam 7-11; SMILES CC(=O)N[C@H](C(=O)N[C@@H](CO)C(=O)N[C@@H](CCCCN)C(=O)N[C@@H](CC(C)C)C(=O)N[C@@H](CCCNC(=N)N)C(=O)N[C@@H](CO)C(=O)N[C@H]1CCC(=O)NCCCC[C@@H](C(=O)N[C@@H](CCCCN)C(=O)N[C@@H](CCC(N)=O)C(=O)N[C@@H](CC(N)=O)C(N)=O)NC(=O)[C@H](CCCCN)NC(=O)[C@H](C(C)C)NC(=O)[C@H](CC(C)C)NC1=O)C(C)C) [Compound 153]"
value_kind = "alpha-helical character by CD (in words)"
measured_value = "decreased helicity"

[[record]]
substance = "Ac-(cyclo-4,8)-NLK[EKIKK]VVKLKDE-NH2 (Ac-NLKEKIKKVVKLKDE-NH2; lactam 4-8; SMILES CC[C@H](C)[C@@H]1NC(=O)[C@H](CCCCN)NC(=O)[C@@H](NC(=O)[C@H](CCCCN)NC(=O)[C@H](CC(C)C)NC(=O)[C@H](CC(N)=O)NC(C)=O)CCC(=O)NCCCC[C@@H](C(=O)N[C@H](C(=O)N[C@H](C(=O)N[C@@H](CCCCN)C(=O)N[C@@H](CC(C)C)C(=O)N[C@@H](CCCCN)C(=O)N[C@@H](CC(=O)O)C(=O)N[C@@H](CCC(=O)O)C(N)=O)C(C)C)C(C)C)NC(=O)[C@H](CCCCN)NC1=O) [Compound 157]"
value_kind = "alpha-helical character by CD (in words)"
measured_value = "decreased helicity"

